measurement-target: Botulinum neurotoxin type A (Xeomin) (Clostridium botulinum serotype A, UniProt P0DPI1 2-1296)
Sequence (P0DPI1 2-1296): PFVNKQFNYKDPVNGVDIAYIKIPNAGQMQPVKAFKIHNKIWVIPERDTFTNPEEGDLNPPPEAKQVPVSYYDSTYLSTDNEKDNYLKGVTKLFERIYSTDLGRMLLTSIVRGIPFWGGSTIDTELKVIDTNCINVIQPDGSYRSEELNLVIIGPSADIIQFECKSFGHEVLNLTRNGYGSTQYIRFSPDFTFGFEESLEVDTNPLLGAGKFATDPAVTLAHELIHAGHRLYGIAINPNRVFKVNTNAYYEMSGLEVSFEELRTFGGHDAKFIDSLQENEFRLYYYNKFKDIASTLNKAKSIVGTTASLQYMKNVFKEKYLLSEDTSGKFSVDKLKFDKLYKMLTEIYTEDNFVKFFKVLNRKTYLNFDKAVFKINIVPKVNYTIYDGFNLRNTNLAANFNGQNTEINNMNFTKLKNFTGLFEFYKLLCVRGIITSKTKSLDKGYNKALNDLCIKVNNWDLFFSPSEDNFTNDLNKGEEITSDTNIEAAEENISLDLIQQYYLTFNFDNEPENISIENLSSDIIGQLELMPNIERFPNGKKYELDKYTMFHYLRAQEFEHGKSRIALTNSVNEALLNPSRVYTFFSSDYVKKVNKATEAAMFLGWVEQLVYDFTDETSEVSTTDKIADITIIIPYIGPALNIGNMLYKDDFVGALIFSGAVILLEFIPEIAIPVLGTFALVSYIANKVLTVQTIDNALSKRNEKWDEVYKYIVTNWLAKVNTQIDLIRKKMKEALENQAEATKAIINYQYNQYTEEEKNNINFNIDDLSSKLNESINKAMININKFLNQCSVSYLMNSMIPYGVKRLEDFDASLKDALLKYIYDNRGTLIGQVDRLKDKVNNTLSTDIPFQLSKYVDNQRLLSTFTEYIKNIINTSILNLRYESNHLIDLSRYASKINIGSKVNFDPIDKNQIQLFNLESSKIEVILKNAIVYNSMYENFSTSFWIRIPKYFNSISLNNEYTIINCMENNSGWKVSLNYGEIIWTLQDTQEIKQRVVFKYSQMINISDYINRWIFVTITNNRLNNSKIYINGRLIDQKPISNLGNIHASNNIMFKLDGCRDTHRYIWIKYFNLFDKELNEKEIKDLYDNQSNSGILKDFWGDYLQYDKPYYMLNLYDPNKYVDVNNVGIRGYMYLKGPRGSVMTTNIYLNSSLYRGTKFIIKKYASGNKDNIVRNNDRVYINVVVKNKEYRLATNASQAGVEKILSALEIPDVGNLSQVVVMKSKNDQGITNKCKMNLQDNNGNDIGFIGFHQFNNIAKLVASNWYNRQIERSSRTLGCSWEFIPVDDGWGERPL
procedure-text: BLI
condition-label: protein: commercial

{"binder": "Apt_2.22 (structured_DNA) DNA: ATACCAGCTTATTCAATTGACATGACTGGGATTTTTGGCGAAATCGAAGGAAGCGGAGAGATAGTAAGTGCAATCT", "Kd": "7 nM"}
